# test-system: human carboxylesterase 1 (hCE1) (Homo sapiens, UniProt P23141)
# Sequence (P23141 18-567): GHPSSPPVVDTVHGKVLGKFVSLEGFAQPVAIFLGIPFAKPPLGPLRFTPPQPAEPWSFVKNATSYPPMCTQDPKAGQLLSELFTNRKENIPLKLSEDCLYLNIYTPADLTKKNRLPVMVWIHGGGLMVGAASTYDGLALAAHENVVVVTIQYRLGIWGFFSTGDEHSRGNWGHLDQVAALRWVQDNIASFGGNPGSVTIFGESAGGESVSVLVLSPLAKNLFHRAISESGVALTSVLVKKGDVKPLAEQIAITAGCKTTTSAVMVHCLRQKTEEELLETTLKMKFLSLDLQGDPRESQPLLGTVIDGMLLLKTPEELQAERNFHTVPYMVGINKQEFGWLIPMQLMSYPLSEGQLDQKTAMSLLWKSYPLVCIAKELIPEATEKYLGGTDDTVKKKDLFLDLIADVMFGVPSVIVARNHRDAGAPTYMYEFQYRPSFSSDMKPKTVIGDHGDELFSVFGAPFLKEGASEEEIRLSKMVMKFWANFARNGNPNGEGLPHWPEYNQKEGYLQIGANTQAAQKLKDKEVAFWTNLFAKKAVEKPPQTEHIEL
property-measured: IC50 (µM)
Report the figure in µM without appending any unit label.

Here CCCCCCCCOCC(=O)C(F)(F)F was tested on human carboxylesterase 1 (hCE1) (Homo sapiens, UniProt P23141), and its IC50 came to 0.02
